Protocol details: protein stability index of a GFP-peptide fusion (GPS, HEK-293T) (PSI 1-6); higher = more stable;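 further: 24-mer peptide tiles fused after GFP, lentivirally expressed, FACS-sorted into six equal bins by GFP/DsRed ratio, decoded by Illumina sequencing, PSI is the read-weighted mean bin number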
Recorded conditions: treatment: DMSO; c terminus: a fixed tail appended
Entries annotated with measured protein stability index

Some entries whose results are on file:
Polymer sequence	protein stability index
AAAEFSSLLRRIKGKLFTWNILKT [SLC35F2]	3.05
GIHPLSSSEVDELIHKADEVTLSE [PALM]	5.35
HAPGVPKILVGNRLHLAFKRQVPT [RAB40B]	2.49
FGTQVENFSTFIKCIFTQFRIILG [PKD2L1]	2.35
ELGEEPQPRDEEEAELELLRQFDL [POLD4]	5.41
NRRSSRETREYAPPSRGHGYRDYG [RBMY1A1]	4.27

// query protein stability index value for entry EEDKDEKSSIYESDFQIEPGFYAT [MIA2]
4.61

// query protein stability index value for entry NTTCVGRYPVCKFPSLQVTAILIE [FEM1C]
2.67

// query protein stability index value for entry RALRKMVSNMSGPSGEEEAKVGPG [CBY2]
4.82

// query protein stability index value for entry GTAHIPPTMHLESPALQVMGPAQE [ZNF449]
4.78

// query protein stability index value for entry RRWGKRKNKPKMNYEKLSRGLRYY [ETS1]
2.44

// query protein stability index value for entry TLAQAHFNNGEYAEAEALYSAYIR [TTC32]
2.98

###

Protocol details: protein stability index of a GFP-peptide fusion (GPS, HEK-293T) (PSI 1-6); higher = more stable
Recorded conditions: treatment: MLN4924 1 uM, 8 h; c terminus: a fixed tail appended
Assign class by protein stability index: not lower than 3 means True; lower than 3 means False.

Examples from the recorded data:
Polymer sequence	Assigned label
DRDGHIKLTDFGFAKKLVDRTWTL [PRKX]	False
TAQSTFNDLQDLREQILRVKDTDD [RAP1B]	True
VIDDAKQYVYIAVMDYLPISSTST [PLD5]	False
ISKGEEPRAGKEESGVSVSNSQPT [SLC29A1]	True
EWASHTAALTNKHSQELTNEKEKA [SASS6]	True
KPEEPPQNLLREKIMKLPLPESLK [PCMTD1]	True

Determine whether this sequence has protein stability index no lower than 3: QGEAFQRALESELQQLRARLQGLE [PBXIP1]
True

Determine whether this sequence has protein stability index no lower than 3: KHPQPAPAVTPDPWGVQGGQESEV [PKD2L1]
True

###

Entries annotated with measured protein stability index
Protocol details: protein stability index of a GFP-peptide fusion (GPS, HEK-293T) (PSI 1-6); higher = more stable
Recorded conditions: treatment: MLN4924 1 uM, 8 h; c terminus: a fixed tail appended
Form: value (number only, do not type unit).

Polymer sequence	protein stability index
AEKLKVQALKDRGLSIPRADTLDE [LSM1]	4.98
DLDSCSRDGALLGCSLTADGLPLH [MYORG]	3.51
TVPADGYILELDDGNGGQFREVYV [TRIM9]	2.2

// query protein stability index value for entry LQIYQYVPKDQRLQAIKAAIMLLP [DLC1]
2.41

// query protein stability index value for entry ASSPSIRQKKLMHKLQEEKAFREE [CCDC70]
4.66

// query protein stability index value for entry LKMSYSRGLIPVKRGPSSRSGGPP [RBMY1A1]
3.16

// query protein stability index value for entry MRGVAEVKEPCSLPMLSVDMENKE [SAMD13]
5.53

// query protein stability index value for entry ASEEGSESEGSESSGRSCRNERSI [SMG5]
5.45

// query protein stability index value for entry VTTEQLGAKMTERGSVARPTQGPE [PXN]
5.14

// query protein stability index value for entry MREMFFEDHIDDAKYCGHLYGLGS [CNOT7]
2.44

// query protein stability index value for entry FLELAVGQRIRRGSIGVWHYICPR [SLC6A17]
2.18

// query protein stability index value for entry FKRSVRRNLSYTCRANRNCPIDQH [NR2F2]
2.63
